# target or system: SARS-CoV-2 3CL-Pro (Severe acute respiratory syndrome coronavirus 2, UniProt P0DTD1)
# Construct: SARS-CoV-2 main protease (3CL-Pro), also termed M-Pro
# measurement protocol: biochemical
# applied conditions: read-out: 3CL-Pro Inhibition [%] Primary Screen (20 µM)
Counter-ions that a name gives are not always drawn.
inhibition at 20 µM: recorded values
measurement kind: inhibition at 20 µM (%)

{"columns": ["compound", "value reported"],
 "data": [
  ["O=c1cc(-c2ccc(O)cc2)oc2cc(O)cc(O)c12 [compound 4, 4',5,7-Trihydroxyflavone]", 94.5],
  ["O=c1c2ccccc2sn1-c1ccccc1", 100],
  ["CCOC(=O)Cc1ccc(-c2ccccc2)cc1", 96.2],
  ["CN(C)C(=S)SSC(=S)N(C)C", 99.9],
  ["CN1CC[C@@]2(C)c3cc(O)ccc3N(C)[C@@H]12", 91.5],
  ["c1ccc2sc(SNC3CCCCC3)nc2c1", 70.1],
  ["COc1cccc2c1C(=O)c1c(O)c3c(c(O)c1C2=O)C[C@@](O)(C(CO)=NNC(=O)CCCCCN1C(=O)C=CC1=O)C[C@@H]3O[C@H]1C[C@H](N)[C@H](O)[C@H](C)O1 [compound 72, hydrochloride]", 101],
  ["O=[N+]([O-])c1cnc(Sc2nnc(O)n2-c2ccc3c(c2)OCCO3)s1", 96.4],
  ["CCC(=O)OCN1C(=O)C=CC1=O", 100],
  ["S=c1[nH]nc(Cc2ccccc2)s1", 101],
  ["CC(C)(C)c1ccc(S(=O)(=O)/C=C/C#N)cc1", 100],
  ["c1ccc2sc(SN3CCOCC3)nc2c1", 99],
  ["O=c1cc(-c2ccccc2)oc2cc(O)c(O)c(O)c12", 97.8],
  ["C=C1C(=O)[C@@]23C(CC[C@@H]1[C@H]2O)[C@@]12CO[C@]3(O)[C@@H](O)[C@@H]1C(C)(C)CC[C@@H]2O (stereo partly shown)", 98.2],
  ["Oc1cc(CNC(=S)C=Cc2cc(O)c(O)c(Br)c2)cc(O)c1O", 79.4],
  ["S=c1[nH]c2ccccc2s1", 94],
  ["Nc1ccc(O)c2ncccc12", 99.3],
  ["CCN(CC)C(=S)SSC(=S)N(CC)CC [compound 46, Tetraethylthioperoxydicarbonic diamide]", 99.7],
  ["CNC(=O)ON(C(C)=O)C(=O)NC", 96.4],
  ["Cc1ccccc1N(C)C(=O)c1ccc([S+]([O-])c2nccs2)c([N+](=O)[O-])c1 (stereo not shown)", 96.7],
  ["O=C(O)C(S)C(S)C(=O)O (stereo not shown) [compound 82, 2,3-bis(sulfanyl)butanedioic acid]", 98.9],
  ["COc1ccc2[nH]c([S+]([O-])Cc3ncc(C)c(OC)c3C)nc2n1 (racemic)", 69.1],
  ["O=C1C2CC=CCC2C(=O)N1SC(Cl)(Cl)Cl (stereo not shown)", 99.8],
  ["O=c1c2ccccc2[se]n1-c1ccccc1", 100],
  ["CC[C@H](CO)Nc1nc(NCc2ccc(-c3ccccn3)cc2)c2ncn(C(C)C)c2n1", 99.5],
  ["CCCCCCNC(=O)n1cc(F)c(=O)[nH]c1=O", 101],
  ["O=C1C(Cl)=C(N2CCOCC2)C(=O)N1c1ccc(Cl)c(Cl)c1", 99.2],
  ["O=C1C=Cc2cc(Br)ccc2C1=O", 102],
  ["Oc1cc2c(cc1C(c1ccc(C(F)(F)F)cc1)N1CCOCC1)OCO2 (stereo not shown)", 81.4],
  ["Oc1ccc2ccccc2c1SSc1c(O)ccc2ccccc12", 91.3],
  ["C[C@@H]1O[C@@H](Oc2c(-c3cc(O)c(O)c(O)c3)oc3cc(O)cc(O)c3c2=O)[C@H](O)[C@H](O)[C@H]1O", 90.6],
  ["COc1cccc(C(=O)CCN[C@@H](C)[C@H](O)c2ccccc2)c1 [compound 89, hydrochloride]", 90.8],
  ["On1ccccc1=S [compound 48, 1-hydroxypyridine-2-thione]", 101],
  ["CCN1CCN(C(c2ccc(C(F)(F)F)cc2)c2ccc3cccnc3c2O)CC1 (stereo not shown)", 100]
]}
